Source listed as the supplement of paper PMC6755084.

B1: F1*; the commonest letter at each place (parent)
chain: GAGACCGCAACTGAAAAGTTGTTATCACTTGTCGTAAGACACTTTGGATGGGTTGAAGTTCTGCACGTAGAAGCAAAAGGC

Variants of: B1
Experiment: fraction ligated after 30 min (ligated reads / total reads); higher = more ligase activity
Experimental Conditions: with F1*sub RNA substrate (template-directed ligation), 42 °C
fraction ligated of 0.8 or higher: Yes. Under 0.8: No.

Would you say T29C T49G shows fraction ligated at minimum 0.8?
No

Another: T35A G38T
Yes

Field entry: C26G A48C
No

Ok, now T30C A41G
Yes

What do we get for T45A G50A ?
No

And for C33A A37T ?
Yes
